target: CCR5 (UniProt P51681); assay: cell-based or functional assay
endpoint: CCR5 sequestration (%) (% of control surface CCR5)

>  <binder>
RANTES derivative: signature sequence SEQ ID NO: 34 fused to positions 10-68 of native RANTES (SEQ ID NO: 1) (ligand) QGPPLSWQQSCCFAYIARPLPRAHIKEYFYTSGKCSNPAVVFVTRKNRQVCANPEKKWVREYINSLEMS

>  <testValue>
8

$$$$
>  <binder>
RANTES derivative: signature sequence SEQ ID NO: 56 fused to positions 10-68 of native RANTES (SEQ ID NO: 1) (ligand) QGPPLMSSQSCCFAYIARPLPRAHIKEYFYTSGKCSNPAVVFVTRKNRQVCANPEKKWVREYINSLEMS

>  <testValue>
15

$$$$
>  <binder>
RANTES derivative: signature sequence SEQ ID NO: 47 fused to positions 10-68 of native RANTES (SEQ ID NO: 1) (ligand) QGPLSQSSQVCCFAYIARPLPRAHIKEYFYTSGKCSNPAVVFVTRKNRQVCANPEKKWVREYINSLEMS

>  <testValue>
78

$$$$
>  <binder>
RANTES derivative: signature sequence SEQ ID NO: 43 fused to positions 10-68 of native RANTES (SEQ ID NO: 1) (ligand) QGPPMQGGLSCCFAYIARPLPRAHIKEYFYTSGKCSNPAVVFVTRKNRQVCANPEKKWVREYINSLEMS

>  <testValue>
4

$$$$
>  <binder>
RANTES derivative: signature sequence SEQ ID NO: 35 fused to positions 10-68 of native RANTES (SEQ ID NO: 1) (ligand) QGPPGMWSQSCCFAYIARPLPRAHIKEYFYTSGKCSNPAVVFVTRKNRQVCANPEKKWVREYINSLEMS

>  <testValue>
5

$$$$
